# assayName: Cytotoxicity against human HBI10A cells after 20 hrs by MTS assay
# Format: cell-based
Please go through the items and note down their CC50 at 20 h.

Record CC50 at 20 h per entry; entries follow.
1. CC(C)(C)OC(=O)N1[C@H](CO)C[C@@H](O)[C@@H]1n1cc(F)c(=O)[nH]c1=O
2. Cc1cn([C@H]2[C@H](O)C[C@@H](CO)N2C(=O)OC(C)(C)C)c(=O)[nH]c1=O
3. CC(C)(C)OC(=O)N1[C@H](CO)C[C@@H](O)[C@@H]1n1ccc(N)nc1=O
4. CCOC(=O)N1[C@H](CO)C[C@@H](O)[C@@H]1n1cc(F)c(=O)[nH]c1=O
5. CC(C)(C)OC(=O)N1[C@H](CO)C[C@@H](O)[C@@H]1n1ccc(=O)[nH]c1=O
6. CCOC(=O)N1[C@H](CO)C[C@@H](O)[C@H]1n1cc(F)c(=O)[nH]c1=O

Output:
623 µM
> 1000 µM
> 1000 µM
> 1000 µM
> 1000 µM
200 µM
